Reported GI50 values are given for each entry in this list.
- Tested on: SF-539
- PROTOCOL_NOTES: Cytotoxicity against human SF539 cells after 48 hrs by SRB assay
- Type: functional
- COND: SF-539, 48 h
Response body: numeric value in nM, unit text excluded.

Below are worked cases with known answers.
COc1cc2c3c(n(CCCNCCO)c(=O)c2cc1OC)-c1cc2c(cc1C3=O)OCO2; 40
COc1cnc2c(c1)C(=O)c1c-2n(CCCN2CCN(CCO)CC2)c(=O)c2cc([N+](=O)[O-])ccc12; 1700

Give SF-539 GI50 for `COc1cnc2c(c1)C(=O)c1c-2n(CCCBr)c(=O)c2cc([N+](=O)[O-])ccc12`
279

Give SF-539 GI50 for `COc1cnc2c(c1)C(=O)c1c-2n(CCCNC2=NCCS2)c(=O)c2cc([N+](=O)[O-])ccc12`
36

---

Reported IC50 values are given for each entry in this list.
- TESTED_SYSTEM: Tyrosyl-DNA phosphodiesterase 2 (Homo sapiens, UniProt O95551)
- Sequence (O95551 whole entry): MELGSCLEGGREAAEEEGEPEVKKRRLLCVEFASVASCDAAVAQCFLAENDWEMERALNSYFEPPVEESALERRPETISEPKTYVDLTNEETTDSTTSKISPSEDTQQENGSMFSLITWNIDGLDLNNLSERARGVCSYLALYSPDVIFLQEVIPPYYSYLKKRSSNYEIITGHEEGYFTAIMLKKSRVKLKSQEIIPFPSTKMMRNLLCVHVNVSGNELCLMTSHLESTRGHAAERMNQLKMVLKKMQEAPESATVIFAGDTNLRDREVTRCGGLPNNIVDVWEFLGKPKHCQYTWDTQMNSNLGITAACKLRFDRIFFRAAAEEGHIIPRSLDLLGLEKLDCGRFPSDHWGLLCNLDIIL
- PROTOCOL_NOTES: Inhibition of recombinant human Tdp2 assessed as decrease in alpha 32P-cordycepin-3'-labeled DNA breaks after 15 mins by PAGE analysis

COc1cnc2c(c1)C(=O)c1c-2n(CCCNCCN2CCOCC2)c(=O)c2cc([N+](=O)[O-])ccc12; 37 to 111 µM
COc1cnc2c(c1)C(=O)c1c-2n(CCCNC(C)C)c(=O)c2cc([N+](=O)[O-])ccc12; 37 to 111 µM
COc1cc2c3c(n(CCCNCCO)c(=O)c2cc1OC)-c1cc2c(cc1C3=O)OCO2 [LMP-744]; 1 to 12 µM

Switching to the query record.
Reported IC50, molecule `COc1cnc2c(c1)C(=O)c1c-2n(CCCN2CCC(N)CC2)c(=O)c2cc([N+](=O)[O-])ccc12` : ____
1 to 12 µM
